Attribution: PubChem BioAssay (NCI)

# System: ACHN renal
# experimentNotes: NCI-60 one-dose screen, 48 h
# assayContext: 10 µM
# Experimental: Growth inhibition of the ACHN human tumor cell line is measured as a screen for anti-cancer activity. Cells are grown in 96 well plates and exposed to the test compound for 48 hours. Compounds are tested at a single concentration, which is 10^-5 M for most compounds. The reported endpoint is percent growth (GI% or GIPRCNT), where numbers from 0 - 100% represent growth inhibition, and numbers from -100% - 0 represent cell death. For example, a value of 40 represents 60% growth inhibition. […]
About 83,000 compounds went through this panel and 20% of them were active in at least one assay; those are over-represented in the sample as a whole. Activity calls are given as the source filed them. Rule for the calls: active = growth percent below 10; inactive = the rest.
Outcome codes: YES = active, NO = inactive

1) CCc1nn2c(-c3ccccc3)c(-c3cc(OC)c(OC)c(OC)c3)nc2s1 | NO
2) COc1ccc(-c2cc(/C=C3\C(=O)Nc4cc(Cl)ccc43)[nH]n2)cc1 | NO
3) Cc1cc(Cl)ccc1Nc1nc(C(F)(F)F)ccc1C(=O)N/N=C/c1ccccc1Cl | NO
4) O=C(O)c1ccccc1C(=O)c1cccc2c(F)cccc12 | NO
5) O=c1cc(CSc2nnc(-c3ccccc3)n2-c2ccc(F)cc2)c2ccc3ccccc3c2o1 | NO
6) O=NN(CC(=O)N/N=C/C=C\c1ccccc1)CC(=O)N/N=C/C=C/c1ccccc1 | NO
7) Oc1ccc(Cn2cc3c(c2-c2ccccc2)CCc2cnoc2-3)cc1 | NO
8) CCCn1c(=O)c2c(nc(-c3cccc(OCCCCl)c3)n2C)n(CCC)c1=O | YES
9) CCOC(=O)c1cc2c(n1Cc1ccccc1)-c1oncc1CC2 | NO
10) O=C1c2cc(Cl)ccc2-c2c(O)cc(Cl)cc21 | NO
11) Cn1c(N)c(N=Cc2ccccc2)c(=O)n(C)c1=O | NO
12) CCOC(=O)C(CCC1=NC(C)(C)CC(C)O1)C(=O)OCC (configuration not stated) | YES
13) CCn1nc(-c2ccc(C(=O)OC)cc2)nc2c(=O)n(C)c(=O)nc1-2 | YES
14) O=C(NC1CCN(Cc2ccccc2)CC1)c1cc(-c2ccncc2)nc2ccc(Cl)cc12 | NO
15) Cc1nc2cc(-n3c(-c4ccc(F)cc4)nc4ccccc4c3=O)ccc2n1Cc1ccccc1 | YES
16) Cc1cc2cc3c(=O)[nH]c(=O)cc-3n(CC(O)C(O)C(O)CO)c2cc1C (configuration not stated) | NO
17) c1ccc(CC(NCCNC(Cc2ccccc2)c2ccccc2)c2ccccc2)cc1 (configuration not stated) | NO

====

# System: UACC-257 melanoma
# experimentNotes: NCI-60 one-dose screen, 48 h (100 = growth as untreated, 0 = no growth, -100 = all killed)
# assayContext: 10 µM
About 83,000 compounds went through this panel and 20% of them were active in at least one assay; those are over-represented in the sample as a whole.
The following molecules are shown together with reported growth values.
measuredQuantity: growth (%)

1. CCCCCCCC/C=C/CCCCCCCCC1=NCCN1CCO | 83.5
2. COc1cc2ccnc(C=O)c2cc1OC | 83.2
3. Nc1ncncc1-c1ccc(F)cc1 | 118
4. CCSc1nc2c([nH]1)c(=O)n(C)c(=S)n2C | 108
5. O=NN(CC(=O)N/N=C/C=C\c1ccccc1)CC(=O)N/N=C/C=C/c1ccccc1 | 98.8
6. O=C(Nc1cccc(F)c1)Nc1cccc(Cl)c1 | 87.7
7. C=CCn1ccc(=O)nc1SC | 102
8. CNC(=O)c1cc(Oc2ccc(NC(=O)Nc3ccc(Cl)c(C(C)(C)C)c3)c(F)c2)ccn1 | 20.7
9. Cc1c(C(=O)N[C@H](CO)Cc2ccccc2)[nH]c2ccc(Cl)cc2c1=O | 108
10. C[C@]12CC[C@H]3[C@@H](CCC4=CC(=O)CC[C@@]43C)[C@@H]1CC[C@@H]2c1csc(N)n1 | 49.6
11. O=[N+]([O-])c1cc2ncccc2c2ncccc12 | 90.5
12. COc1ccc(-c2nnc(COc3ccc(NC(=O)Nc4ccccc4)cc3F)o2)cc1 | 96.8
